Where these numbers come from: patent US20210324061A1

Give Activity on Biacore (%) for every item shown.
Target: T1, human GARP-TGF-β1 complex (recombinant complex of human GARP and latent human TGF-β1) (human, UniProt Q14392 20-627; P01137 30-278; P01137 279-390)
T1 construct: also called huGARP-TGF-β1; hGARP-TGF-β1
T1 sequence (Q14392 20-627 limits assumed, chain 1 of 3): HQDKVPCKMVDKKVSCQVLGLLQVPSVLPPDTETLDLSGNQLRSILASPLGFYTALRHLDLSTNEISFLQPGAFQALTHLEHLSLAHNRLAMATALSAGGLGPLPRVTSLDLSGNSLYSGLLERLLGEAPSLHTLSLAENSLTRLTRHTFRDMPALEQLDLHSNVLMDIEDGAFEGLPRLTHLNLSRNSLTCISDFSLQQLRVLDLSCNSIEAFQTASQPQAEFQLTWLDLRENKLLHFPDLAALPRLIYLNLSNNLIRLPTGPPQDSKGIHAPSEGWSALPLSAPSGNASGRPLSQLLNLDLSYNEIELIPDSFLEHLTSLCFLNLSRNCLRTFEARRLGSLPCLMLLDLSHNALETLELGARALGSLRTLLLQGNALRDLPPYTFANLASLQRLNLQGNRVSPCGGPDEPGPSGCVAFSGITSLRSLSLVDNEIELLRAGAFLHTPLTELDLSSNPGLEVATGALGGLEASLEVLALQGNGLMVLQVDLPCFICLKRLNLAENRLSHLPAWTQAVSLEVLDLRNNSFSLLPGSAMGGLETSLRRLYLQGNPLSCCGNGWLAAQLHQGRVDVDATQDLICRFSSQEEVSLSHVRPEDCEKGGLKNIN
T1 sequence (P01137 30-278 limits assumed, chain 2 of 3): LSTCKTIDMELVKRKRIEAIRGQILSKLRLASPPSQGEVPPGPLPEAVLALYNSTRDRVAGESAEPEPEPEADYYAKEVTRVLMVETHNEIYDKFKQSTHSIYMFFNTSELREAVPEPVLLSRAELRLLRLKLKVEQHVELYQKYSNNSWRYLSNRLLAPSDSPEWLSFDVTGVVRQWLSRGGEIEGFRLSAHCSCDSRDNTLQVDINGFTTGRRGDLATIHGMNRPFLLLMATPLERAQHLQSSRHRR
T1 sequence (P01137 279-390 limits assumed, chain 3 of 3): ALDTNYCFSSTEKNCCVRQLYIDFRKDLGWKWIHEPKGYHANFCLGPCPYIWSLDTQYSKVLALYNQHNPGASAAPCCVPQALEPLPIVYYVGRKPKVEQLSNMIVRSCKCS
Experiment: SPR Biacore 3000, chip ~4000 RU hGARP-TGF-β; slope vs -20°C reference (=100%); sample stored 28 d at 5°C
Numbers only, in %.

Examples from the recorded data:
binder	assay_value
39B6-AVE IgG4 S228P (antibody, V domains shown, Variant of 39B6-A in IgG4 S228P format; Positions are Kabat-type) VH: QVQLVQPGAEVRKPGASVKVSCKASGYRFTSYYIDWVRQAPGQGLEWMGRIDPEDAGTKYAQKFQGRVTMTADTSTSTVYVELSSLRSEDTAVYYCARVEWETVVVGDLMYEYEYWGQGTLVTVSS VL: DIQMTQSPSSLSASVGDRVTITCQASQSISSYLAWYQQKPGQAPKILIYGASRLKTGVPSRFSGSGSGTSFTLTISSLEPEDAATYYCQQYASVPVTFGQGTKVEIKR	99
39B6-ANK IgG4 S228P (antibody, V domains shown, Variant of 39B6-A in IgG4 S228P format; Positions are Kabat-type) VH: QVQLVQPGAEVRKPGASVKVSCKASGYRFTSYYIDWVRQAPGQGLEWMGRIDPEDAGTKYAQKFQGRVTMTADTSTSTVYVELSSLRSEDTAVYYCARNKWETVVVGDLMYEYEYWGQGTLVTVSS VL: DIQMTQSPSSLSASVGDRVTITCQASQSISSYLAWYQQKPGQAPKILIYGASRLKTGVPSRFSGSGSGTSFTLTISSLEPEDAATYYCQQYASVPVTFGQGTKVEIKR	101
39B6-ANR IgG4 S228P (antibody, V domains shown, Variant of 39B6-A in IgG4 S228P format; Positions are Kabat-type) VH: QVQLVQPGAEVRKPGASVKVSCKASGYRFTSYYIDWVRQAPGQGLEWMGRIDPEDAGTKYAQKFQGRVTMTADTSTSTVYVELSSLRSEDTAVYYCARNRWETVVVGDLMYEYEYWGQGTLVTVSS VL: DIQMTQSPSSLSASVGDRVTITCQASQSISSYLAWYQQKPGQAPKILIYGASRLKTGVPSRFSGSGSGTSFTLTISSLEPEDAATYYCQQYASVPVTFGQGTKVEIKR	129

Entry 39B6-AYE (ARGX-115), IgG4 S228P (antibody, V domains shown) VH: QVQLVQPGAEVRKPGASVKVSCKASGYRFTSYYIDWVRQAPGQGLEWMGRIDPEDAGTKYAQKFQGRVTMTADTSTSTVYVELSSLRSEDTAVYYCARYEWETVVVGDLMYEYEYWGQGTLVTVSS VL: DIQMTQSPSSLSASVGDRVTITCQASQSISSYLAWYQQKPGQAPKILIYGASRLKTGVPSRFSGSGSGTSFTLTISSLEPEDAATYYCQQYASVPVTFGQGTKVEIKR — recorded Activity on Biacore (%) = 96.7
